Origin of measurements: paper PMC12136788

Target: T1, UNK ZnF1-3 (human, UniProt Q9C0B0 31-174)
T1 sequence: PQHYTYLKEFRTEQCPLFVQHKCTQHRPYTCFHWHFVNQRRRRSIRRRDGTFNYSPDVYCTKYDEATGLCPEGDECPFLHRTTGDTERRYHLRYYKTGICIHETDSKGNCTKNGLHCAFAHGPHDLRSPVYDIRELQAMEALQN
Assay: nsRBNS (natural sequence RNA bind-n-seq); RBNS binding buffer (assumed for nsRBNS): 25 mM Tris pH 7.5, 150 mM KCl, 3 mM MgCl2, 0.01% Triton X-100, 500 ug/ml BSA, 20 U/ml SUPERase-In, 4 C; UNK is unkempt and MSI1 is Musashi-1; names of the RNAs are library labels; protein concentration not given here; high values mean tight binding
Whole data set: some 24,000 sequences, median “enrichment r” near 0.99, cut for the highest 2% near 3.7. Only a selection was taken, and the highest values are over-represented in it overall.
Measured binding signal by item
endpointLabel: binding signal

binder	dataValue
chr2:170668292:170668293:+_ENSG00000138385_ENST00000260956|hu_mus|motif|central (ssRNA) RNA: GGGAGUUCUACAGUCCGACGAUCACCUAAUUCGCUUUUCUUUUUAAAAGCUUCUGAAGACAAAAAGCAGCUUAAAAUCGGACGGAGGAAUAAAAACACUGCUUACUAAAUAAACUACUUGUCUCUAGCACCAUUUUCUCUUUUCAACAGAGGAUUGAGCAUCA	1.16 enrichment R
chr17:45760540:45760541:+_ENSG00000108424_ENST00000290158|hu_hu|motif|central (ssRNA) RNA: GGGAGUUCUACAGUCCGACGAUCUUUCCCUAGAGUAAAAAAAACAAAAAACAAAACCAAAAAAAAAAAACAAAACAAAACCGGAAGAGCGUCUUUCCUCUGUGUGUGUGUUUUUUUUUUUUUUUUUUUUUUUUUUUUUACAUCCAACAGAGGAUUGAGCAUCA	3.38 enrichment R
chrX:53596632:53596633:-_ENSG00000086758_ENST00000262854|hu_mus|FALSE|FALSE (ssRNA) RNA: GGGAGUUCUACAGUCCGACGAUCGGCGUGCUUCUCUGUACUCUCAGCCAUAGCAAGCGCCCGUCCCAGGGCUGCUUUCACUUCAUUCACUAGGGCCACUUGAGCAUCUGUGCCACUCCCCGCAGCAGCCAGACUUGCAAGGAACAACAGAGGAUUGAGCAUCA	1.52 enrichment R
